# System: KRAS patient-derived spheroids with HUVEC/MSC, viability
# METHOD: Anticancer human tumor 323965-272-R-J2-PDC patient-derived pancreatic carcinoma cell line growth inhibition [KRAS2]
# ASSAY_SETUP: second compound 1 µM; first compound 1 µM; stronger effect = lower value
PARAMETER_MEASURED: viability, T/C (%)
Please give a number only; it is taken to be in %.

// worked examples, viability, T/C included
| COMPOUND | MEASUREMENT |
| --- | --- |
| CC1COCCN1c1cc(-c2ccnn2C)c2ccnc(-c3ccn[nH]3)c2n1 (stereo not drawn) + CNCc1ccccc1-c1csc(C(C)Nc2nc(C)nc3cc(OC)c(OC)cc23)c1 | 14.9 |
| CC1(C)CCC(CN2CCN(c3ccc(C(=O)NS(=O)(=O)c4ccc(NCC5CCOCC5)c([N+](=O)[O-])c4)c(Oc4cnc5[nH]ccc5c4)c3)CC2)=C(c2ccc(Cl)cc2)C1 + CC1OCC2(CCN(c3cnc(Sc4ccnc(N)c4Cl)c(N)n3)CC2)C1N | 34 |

Qu. Reported viability, T/C, compound CCN1CCN(Cc2ccc(Nc3ncc(F)c(-c4cc(F)c5nc(C)n(C(C)C)c5c4)n3)nc2)CC1 + C=CC(=O)N1CCN(c2nc(OCC3CCCN3C)nc3c2CCN(c2cccc4cccc(C)c24)C3)CC1CC#N : ____
Ans. 36.1

====

Listing of entries alongside the reported pIC50.
# Tested on: KRAS patient-derived spheroids with HUVEC/MSC, viability
# METHOD: Anticancer human tumor 323965-272-R-J2-PDC cell line growth inhibition [KRAS2];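 further: spheroids exposed to agents for 7 days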
# ASSAY_SETUP: curve of first compound; second compound 0.316 µM
Keep in mind that pIC50 stands for -log10 of concentration in molar terms.

| COMPOUND | pIC50 |
| --- | --- |
| CCN1CCN(Cc2ccc(Nc3ncc(F)c(-c4cc(F)c5nc(C)n(C(C)C)c5c4)n3)nc2)CC1 + C=CC(=O)N1CCN(c2nc(=O)n(-c3c(C)ccnc3C(C)C)c3nc(-c4c(O)cccc4F)c(F)cc23)C(C)C1 | 8.18 |

Qu. For the compound shown here, Cn1nccc1Nc1nccc(-c2cc3c(s2)C(C)(C)N(CCN2CCOCC2)C3=O)n1 + CNCc1ccccc1-c1csc(C(C)Nc2nc(C)nc3cc(OC)c(OC)cc23)c1 , give the reported pIC50.
Ans. 5.87

Qu. I'd like to know its pIC50. The compound in question is O=C(c1cc(Cc2n[nH]c(=O)c3ccccc23)ccc1F)N1CCN(C(=O)C2CC2)CC1 + C=CC(=O)N1CCN(c2nc(=O)n(-c3c(C)ccnc3C(C)C)c3nc(-c4c(O)cccc4F)c(F)cc23)C(C)C1
Ans. 5.13

Qu. Would you mind telling me what pIC50 value was observed for CC(=O)Nc1cccc(-n2c(=O)n(C3CC3)c(=O)c3c(Nc4ccc(I)cc4F)n(C)c(=O)c(C)c32)c1 + CNCc1ccccc1-c1csc(C(C)Nc2nc(C)nc3cc(OC)c(OC)cc23)c1 ?
Ans. 8.54

====

# System: KRAS patient-derived spheroids with HUVEC/MSC, viability
# METHOD: Anticancer human tumor 323965-272-R-J2-PDC cell line growth inhibition [KRAS2];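 further: spheroids exposed to agents for 7 days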;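 on viability, T/C: 100% = DMSO vehicle control viability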
# ASSAY_SETUP: second compound 1 µM; first compound 0.0316 µM; stronger effect = lower value
Rule: measured viability, T/C below 50% gets criterion met; anything equal to or greater than 50% gets criterion not met.

Qu. Determine whether this compound shows viability, T/C lower than 50% (ties excluded): CC(C)n1nc(-c2ccc3oc(N)nc3c2)c2c(N)ncnc21 + CNCc1ccccc1-c1csc(C(C)Nc2nc(C)nc3cc(OC)c(OC)cc23)c1
Ans. criterion met

Entry source: PubChem BioAssay AID1963869
